STUDY TARGET: PLA2 (Homo sapiens)
Construct: The enzyme is isolated from human platelets; from tissue; host or cells: human platelets
Sequence (P14555 21-144): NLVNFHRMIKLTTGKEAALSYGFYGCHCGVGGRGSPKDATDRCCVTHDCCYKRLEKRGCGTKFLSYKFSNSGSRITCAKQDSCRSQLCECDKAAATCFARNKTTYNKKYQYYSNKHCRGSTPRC
ASSAY NOTES: PLA2 Inhibition Assay (14C-oleate labeled E. coli membrane substrate)
Assay type: biochemical
CONDITION DETAILS: 100 μM; PLA2 from human platelets; pH 7, 37° C.
Below, each entry is listed alongside its reported inhibition at 100 µM.
Kindly provide the numeric value in % only, without the unit symbol.

- COMPOUND: "O=C(O)/C=C/c1cccc(OCc2ccc(OC3CCCC3)c(OC3CCCC3)c2)c1-c1cccc(C(=O)O)c1 [Structure 39b]"
  inhibition at 100 µM / %: 86
- COMPOUND: "CC1(C)CCC(C)(C)c2cc(COc3cccc(C(=O)O)c3-c3ccccc3)ccc21 [Structure 14n]"
  inhibition at 100 µM / %: 90
- COMPOUND: "CCCCCCCCCCOc1ccc(COc2cccc(C(=O)O)c2-c2cccc(C(=O)O)c2)cc1OCCCCCCCCCC [Structure 14a]"
  inhibition at 100 µM / %: 99

Recall and state the measured inhibition at 100 µM for COc1cc(COc2cccc(CC(=O)O)c2-c2cccc(C(=O)O)c2)ccc1C12CC3CC(CC(C3)C1)C2 [Structure 30d] .
97
